meta.source: ChEMBL document CHEMBL2021890

Test: Drug uptake in C57 mouse plasma at 100 mg/kg, po after 20 hrs by LC/MS analysis
Type: ADME, organism-based
Design: dose 100 mg/kg, route oral
measurementName: concentration at 20 h (nM)

1. C[C@@H](c1ccc(-c2ccccc2)cc1)[C@H](NC(=O)C(C)(C)N)C(=O)N1CCC[C@H]1c1nc2cc(Cl)c(Cl)cc2[nH]1
2. CC(C)(C)N1C[C@@H](C(=O)N2CCC(c3ccnn3-c3ccc(F)c(Cl)c3)CC2)[C@H](c2ccc(F)cc2F)C1
[in] Select one. Lower concentration at 20 h: 1 or 2 Refer to your chosen item by its label in the answer.
[out] 2

----------
Experiment: Half life in mouse at 0.5 mg/kg, iv and 1 mg/kg, po
Assay type: ADME, organism-based
Settings: in vivo
measurementName: half-life (h)

Cc1cc(C2CCN(C(=O)[C@@H]3CN(C(C)(C)C)C[C@H]3c3ccc(F)cc3F)CC2)n(-c2ccc(Cl)c(C)c2)n1
3.1
Cc1cc(C2CCN(C(=O)[C@@H]3CN(C(C)(C)C)C[C@H]3c3ccc(F)cc3F)CC2)n(-c2ccc(F)cc2F)n1
2.5
Cc1cc(C2CCN(C(=O)[C@@H]3CN(C(C)(C)C)C[C@H]3c3ccc(F)cc3F)CC2)n(-c2ccc(Cl)cc2)n1
3.9
Cc1cc(C2CCN(C(=O)[C@@H]3CN(C(C)(C)C)C[C@H]3c3ccc(F)cc3F)CC2)n(-c2ccc(Cl)cc2Cl)n1
3.1
Cc1nc(C2CCN(C(=O)[C@H]3CN(C(C)(C)C)C[C@@H]3c3ccc(F)cc3F)CC2)n(-c2ccc(Cl)c(C)c2)n1
2.1
Cc1cc(C2CCN(C(=O)[C@@H]3CN(C(C)(C)C)C[C@H]3c3ccc(F)cc3F)CC2)n(-c2ccc(F)c(F)c2)n1
1.9

I. Cc1cc(-n2nc(C3CCN(C(=O)[C@@H]4CN(C(C)(C)C)C[C@H]4c4ccc(F)cc4F)CC3)nc2C)ccc1Cl
II. Cc1cc(C2CCN(C(=O)[C@@H]3CN(C(C)(C)C)C[C@H]3c3ccc(F)cc3F)CC2)n(-c2ccc(F)c(Cl)c2)n1
[in] Could you kindly indicate whether I or II has the higher half-life value? The response must carry the label of the picked entry.
[out] II

I. Cc1cc(C2CCN(C(=O)[C@@H]3CNC[C@H]3c3ccc(F)cc3F)CC2)n(-c2cc(Cl)ccc2Cl)n1
II. CC(C)(C)N1C[C@@H](C(=O)N2CCC(c3ccnn3-c3ccc(F)c(Cl)c3)CC2)[C@H](c2ccc(F)cc2F)C1
[in] Look at I and II . Which one has the lower recorded half-life number? Kindly give the label for the entry you pick.
[out] I
(I: 1.4 h, II: 3.1 h)

I. Cc1cc(C2CCN(C(=O)[C@@H]3CN(C(C)(C)C)C[C@H]3c3ccc(F)cc3F)CC2)n(-c2ccc(Cl)cc2F)n1
II. O=C([C@@H]1CNC[C@H]1c1ccc(F)cc1F)N1CCC(c2ccnn2-c2ccc(F)c(Cl)c2)CC1
[in] Hi, I'm comparing two records. Which one has the lower half-life, I or II ? Mark your selection by writing its label.
[out] II
(II: 1.6 h, I: 3.6 h)

----------
Assay: Metabolic stability in human liver microsomes after 30 mins by LC/MS analysis
Format: ADME, Microsome
Details: read-out: Stability
measurementName: remaining at 0.5 h (%)

Some molecules with known remaining at 0.5 h results, for comparison:
Cc1cc(C2CCN(C(=O)[C@@H]3CN(C(C)(C)C)C[C@H]3c3ccc(F)cc3F)CC2)n(-c2ccc(Cl)c(C)c2)n1
1
Cc1cc(C2CCN(C(=O)[C@@H]3CN(C(C)(C)C)C[C@H]3c3ccc(F)cc3F)CC2)n(-c2ccc(F)c(F)c2)n1
39
Cc1nc(C2CCN(C(=O)[C@H]3CN(C(C)(C)C)C[C@@H]3c3ccc(F)cc3F)CC2)n(-c2ccc(Cl)c(C)c2)n1
29

a. Cc1nc(C2CCN(C(=O)[C@@H]3CNC[C@H]3c3ccc(F)cc3F)CC2)n(-c2ccc(Cl)cc2)n1
b. Cc1cc(-n2nc(C3CCN(C(=O)[C@@H]4CN(C(C)(C)C)C[C@H]4c4ccc(F)cc4F)CC3)nc2C)ccc1Cl
[in] # argmax over remaining at 0.5 h for candidates a and b When you have decided, please share the label of that item.
[out] a
(a: 53%, b: 6%)

A. O=C([C@@H]1CNC[C@H]1c1ccc(F)cc1F)N1CCC(c2ccnn2-c2ccc(F)c(Cl)c2)CC1
B. Cc1cc(C2CCN(C(=O)[C@@H]3CN(C(C)(C)C)C[C@H]3c3ccc(F)cc3F)CC2)n(-c2ccc(Cl)cc2)n1
C. CC(C)(C)N1C[C@@H](C(=O)N2CCC(c3nnnn3-c3ccc(Cl)cc3)CC2)[C@H](c2ccc(F)cc2F)C1
[in] Ascending by remaining at 0.5 h, please. In your reply, arrange the labels in the requested order.
[out] C, B, A
(C: 5%, B: 28%, A: 44%)
